# System: RPMI-8226 leukemia
# measurement description: NCI tumour cell line growth inhibition, 48 h
measured endpoint: TGI

GET /values?readout=TGI&system=RPMI-8226 leukemia&item= CC(C)Cc1ccc(C(C)/C=C2\CCC(CN3CCCCC3)C2=O)cc1 (stereo not given)
6.65 µM

GET /values?readout=TGI&system=RPMI-8226 leukemia&item= `O=C1CN(c2ccccc2)C(=O)CN1CCN1CC(=O)N(c2ccccc2)CC1=O`
> 100 µM

GET /values?readout=TGI&system=RPMI-8226 leukemia&item= `CN=C(N)NC`
> 100 µM

GET /values?readout=TGI&system=RPMI-8226 leukemia&item= `COC(=O)CCCNC(=O)C(=O)c1c(O)c(O)c(C(C)C)c2cc(C)c(-c3c(C)cc4c(C(C)C)c(O)c(O)c(C(=O)C(=O)NCCCC(=O)OC)c4c3O)c(O)c12`
> 32.5 µM

GET /values?readout=TGI&system=RPMI-8226 leukemia&item= CC(C)(C)C1CCC(=O)C(C(O)CC2CC(=O)N(c3ccccc3)C(=O)C2)C1 (stereo not given)
> 100 µM
